Data provenance is patent US20110046105A1.

TESTED TARGET: hCB1R (Homo sapiens)
Sequence (P21554 whole entry): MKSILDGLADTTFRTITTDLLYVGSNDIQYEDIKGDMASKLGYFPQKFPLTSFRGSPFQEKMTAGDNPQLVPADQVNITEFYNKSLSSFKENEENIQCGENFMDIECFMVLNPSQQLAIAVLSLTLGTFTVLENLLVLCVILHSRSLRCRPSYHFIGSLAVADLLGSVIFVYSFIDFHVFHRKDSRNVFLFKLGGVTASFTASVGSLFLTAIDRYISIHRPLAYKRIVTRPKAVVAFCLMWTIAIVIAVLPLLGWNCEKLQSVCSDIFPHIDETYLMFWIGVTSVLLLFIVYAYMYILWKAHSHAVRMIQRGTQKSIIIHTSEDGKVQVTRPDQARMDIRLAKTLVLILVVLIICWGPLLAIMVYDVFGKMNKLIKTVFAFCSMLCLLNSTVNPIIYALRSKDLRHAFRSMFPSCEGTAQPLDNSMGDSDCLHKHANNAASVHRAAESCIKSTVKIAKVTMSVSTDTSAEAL
Examples of compounds with documented Ki follow.
Give just the numeric value; nM need not be written.

{"columns": ["COMPOUND", "Ki / nM"],
 "data": [
  ["CCOc1ccc(Nc2ccc(Nc3cc(F)ccc3CN3C(=O)N(c4ccc(F)c(C(F)(F)F)c4)C(=O)C3(C)C)cc2)nn1 [Example 7]", 18],
  ["CC1(C)C(=O)N(c2ccc(F)c(C(F)(F)F)c2)C(=O)N1Cc1ccc(F)cc1Nc1ccc(Nc2ccc(Cl)nn2)cc1 [Example 10]", 7],
  ["COC(=O)C1CC(=O)N(c2ccc(Nc3cc(F)ccc3CN3C(=O)N(c4ccc(F)c(C(F)(F)F)c4)C(=O)C3(C)C)cc2)C1 (stereo not drawn) [Example 6]", 40],
  ["CC1(C)C(=O)N(c2ccc(F)c(C(F)(F)F)c2)C(=O)N1Cc1ccc(F)cc1Nc1ccc(-n2cnc3ccccc32)cc1 [Example 5]", 4],
  ["CC1(C)C(=O)N(c2ccc(C#N)c(C(F)(F)F)c2)C(=O)N1Cc1ccccc1Nc1ccc(CN2CCNCC2=O)cc1 [Example 1]", 34]
]}

# evaluate next
Reported Ki for CC1(C)C(=O)N(c2ccc(F)c(C(F)(F)F)c2)C(=O)N1Cc1ccc(F)cc1Nc1ccc(N2CCCC2=O)cc1 [Example 4] was 103

---

TESTED TARGET: hCB2R (Homo sapiens)
Sequence (P34972 whole entry): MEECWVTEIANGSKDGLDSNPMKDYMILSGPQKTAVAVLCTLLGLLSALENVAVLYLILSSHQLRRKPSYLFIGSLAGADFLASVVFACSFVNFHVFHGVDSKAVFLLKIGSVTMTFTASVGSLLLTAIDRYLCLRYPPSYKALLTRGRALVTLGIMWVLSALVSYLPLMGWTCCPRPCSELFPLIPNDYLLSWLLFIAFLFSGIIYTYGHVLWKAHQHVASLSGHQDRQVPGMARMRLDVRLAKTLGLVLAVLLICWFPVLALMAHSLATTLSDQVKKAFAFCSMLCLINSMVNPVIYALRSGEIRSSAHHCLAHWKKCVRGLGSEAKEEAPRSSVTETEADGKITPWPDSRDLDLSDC
ASSAY PROTOCOL: In vitro functional assay with recombinant cells (FLIPR), cannabinoid 2 receptor
RUN CONDITIONS: recombinant HEK293 cells expressing CB2 and G-protein Galpha16; intracellular Ca2+ change against reference agonist
pIC50: −log10 of the molar value.
PARAMETER MEASURED: pIC50

Reported pIC50 for CC1(C)C(=O)N(c2ccc(F)c(C(F)(F)F)c2)C(=O)N1Cc1ccccc1Nc1ccc(-c2nnn[nH]2)cc1 was < 5.00

---

TESTED TARGET: UniProtKB P21554
ASSAY PROTOCOL: In vitro functional assay with recombinant cells (FLIPR), cannabinoid 1 receptor
RUN CONDITIONS: recombinant HEK293 cells expressing CB1 and G-protein Galpha16; intracellular Ca2+ change against reference agonist
PARAMETER MEASURED: pIC50
Keep in mind that pIC50 stands for -log10 of concentration in molar terms.

Sample answers from the record:
{"columns": ["MOLECULE", "PARAMETER MEASURED", "ASSAY VALUE"],
 "data": [
  ["CC1(C)C(=O)N(c2ccc(F)c(C(F)(F)F)c2)C(=O)N1Cc1ccc(F)cc1Nc1ccc(N2CCNC2=O)cc1 [Example 16]", "pIC50", 7.64],
  ["COc1ccc(Nc2ccc(Nc3cc(F)ccc3CN3C(=O)N(c4ccc(F)c(C(F)(F)F)c4)C(=O)C3(C)C)cc2)nn1 [Example 8]", "pIC50", 7.62],
  ["CCOc1ccc(Nc2ccc(Nc3cc(F)ccc3CN3C(=O)N(c4ccc(F)c(C(F)(F)F)c4)C(=O)C3(C)C)cc2)nn1 [Example 7]", "pIC50", 7.49],
  ["CC1(C)C(=O)N(c2ccc(F)c(C(F)(F)F)c2)C(=O)N1Cc1ccc(F)cc1Nc1ccc(-n2cnc3ccccc32)cc1 [Example 5]", "pIC50", 8.22],
  ["CC1(C)C(=O)N(c2ccc(F)c(C(F)(F)F)c2)C(=O)N1Cc1ccc(F)cc1Nc1ccc(N2CCNCC2=O)cc1 [Example 13]", "pIC50", 6.90],
  ["CC1(C)C(=O)N(c2ccc(F)c(C(F)(F)F)c2)C(=O)N1Cc1ccc(F)cc1Nc1ccc(N2CCC(O)CC2)cc1 [Example 14]", "pIC50", 8.05]
]}

Reported pIC50 for CC1(C)C(=O)N(c2ccc(F)c(C(F)(F)F)c2)C(=O)N1Cc1ccc(F)cc1Nc1ccc(OC2CCOCC2)cc1 [Example 18] was 7.03

Reported pIC50 for CC1(C)C(=O)N(c2ccc(F)c(C(F)(F)F)c2)C(=O)N1Cc1ccc(F)cc1Nc1ccc(C2NC(=O)NC2=O)cc1 (stereo not shown) [Example 15] was 7.22

Reported pIC50 for CC1(C)C(=O)N(c2ccc(F)c(C(F)(F)F)c2)C(=O)N1Cc1ccc(F)cc1Nc1ccc(Nc2ccc(Cl)nn2)cc1 [Example 10] was 7.47

Reported pIC50 for CC1(C)C(=O)N(c2ccc(F)c(C(F)(F)F)c2)C(=O)N1Cc1ccccc1Nc1ccc(-c2nnn[nH]2)cc1 [Example 2] was 6.69
